All values here come from patent US11053241B2.

biological target: human TYK2 (JH2domain-pseudokinase) (Homo sapiens (Human), UniProt P29597); assay: TYK2 JH2 Domain Binding Assay (KINOMEscan); settings: 11-point 3-fold dilution, top concentration 30,000 nM, duplicate
Sequence (P29597 556-888): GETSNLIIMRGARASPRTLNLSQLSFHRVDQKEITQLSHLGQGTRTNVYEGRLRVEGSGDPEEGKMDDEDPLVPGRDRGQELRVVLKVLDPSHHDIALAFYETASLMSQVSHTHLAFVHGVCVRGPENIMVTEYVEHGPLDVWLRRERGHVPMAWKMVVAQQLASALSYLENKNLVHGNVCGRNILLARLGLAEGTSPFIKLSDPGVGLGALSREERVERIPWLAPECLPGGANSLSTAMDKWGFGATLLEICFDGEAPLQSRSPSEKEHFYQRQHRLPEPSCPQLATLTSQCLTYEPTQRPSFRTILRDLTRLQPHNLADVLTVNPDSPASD
pKd: −log10 of the molar value.
Measured pKd of individual entries

1. CNC(=O)c1cnc(NC(=O)C2CC2)c2[nH]c(-c3cccc(-c4cn5c(n4)C(C)(C)OCC5)c3F)cc12 [Compound I-84] :: > 9.70
2. CNC(=O)c1cnc(NC(=O)C2CC2)c2[nH]c(-c3ccc(OC)cc3[C@H]3COCCO3)cc12 [Compound I-71] :: < 8.00
3. CNC(=O)c1cnc(NC(=O)C2CC2)c2[nH]c(-c3cccc(-n4nccn4)c3F)cc12 [Compound I-63] :: 9.00 to 9.70
4. CNC(=O)c1cnc(NC(=O)C2CC2)c2[nH]c(-c3c(F)cc(-c4nccn4C)cc3N3CCOCC3)cc12 [Compound I-86] :: > 9.70
5. CNC(=O)c1cnc(NC(=O)C2CC2)c2[nH]c(-c3cccn(C4CCCOC4)c3=O)cc12 (stereo in doubt) [Compound I-55] :: 9.00 to 9.70

Item: CNC(=O)c1ccc(-c2cc3c(C(=O)NC)cnc(NC(=O)C4CC4)c3[nH]2)c(OC)c1 [Compound I-29] | pKd: 9.00 to 9.70

Item: CNC(=O)c1cnc(NC(=O)C2CC2)c2[nH]c(-c3ccc(-c4nccn4C)cc3OC3CC3)cc12 [Compound I-57] | pKd: 8.00 to 9.00

Item: CNC(=O)c1cnc(NC(=O)C2CC2)c2[nH]c(-c3ccc4ccn(C)c4c3F)cc12 [Compound I-21] | pKd: > 9.70

Item: CCc1csc(-c2cc3c(C(=O)NC)cnc(NC(=O)C4CC4)c3[nH]2)n1 [Compound I-70] | pKd: 9.00 to 9.70

Item: CNC(=O)c1cnc(NC(=O)C2CC2)c2[nH]c(-c3cccc(OC4CCOCC4)c3F)cc12 [Compound I-85] | pKd: 9.00 to 9.70

Item: CNC(=O)c1cnc(NC(=O)C2CC2)c2[nH]c(-c3ccc(C4COCCO4)cc3OC)cc12 (stereo not drawn) [Compound I-61] | pKd: < 8.00

Item: CNC(=O)c1cnc(NC(=O)C2CC2)c2[nH]c(-c3cccc(N4CCC4)c3C#N)cc12 [Compound I-41] | pKd: 8.00 to 9.00

Item: CNC(=O)c1cnc(NC(=O)C2CC2)c2[nH]c(-c3cccc(-n4nccn4)c3)cc12 [Compound I-8] | pKd: 8.00 to 9.00

Item: CNC(=O)c1cnc(NC(=O)C2CC2)c2[nH]c(-c3ccc(-c4ccn(C)n4)cc3F)cc12 [Compound I-101] | pKd: 9.00 to 9.70

Item: CNC(=O)c1cnc(NC(=O)C2CC2)c2[nH]c(-c3cccc(-c4ncn(C)n4)c3)cc12 [Compound I-2] | pKd: > 9.70

###

target: human TYK2 (JH2domain-pseudokinase) (Homo sapiens (Human)); assay: TYK2 JH2 Domain Binding Assay (KINOMEscan); settings: 11-point 3-fold dilution, top concentration 30,000 nM, duplicate
pKd: −log10 of the molar value.
Measured pKd of individual entries

Recorded pKd, per entry:
1) CNC(=O)c1cnc(NC(=O)C2CC2)c2[nH]c(-c3ncc(C(=O)N(C)C)cc3F)cc12 :: 9.00 to 9.70
2) CNC(=O)c1cnc(NC(=O)C2CC2)c2[nH]c(-c3cccc(-n4cnnc4)c3)cc12 :: 9.00 to 9.70
3) CNC(=O)c1cnc(NC(=O)C2CC2)c2[nH]c(-c3c(F)cc(-n4nccn4)cc3OC3CC3)cc12 :: < 8.00
4) CNC(=O)c1cnc(Nc2ccn(C)n2)c2[nH]c(-c3cccc(-c4cn5c(n4)COCC5)c3F)cc12 :: > 9.70
5) CNC(=O)c1cnc(NC(=O)C2CC2)c2[nH]c(-c3ccccc3)cc12 :: 8.00 to 9.00

Item: CNC(=O)c1cnc(NC(=O)C2CC2)c2[nH]c(-c3cccc(-c4ncco4)c3F)cc12 | pKd: > 9.70

Item: CNC(=O)c1cnc(NC(=O)C2CC2)c2[nH]c(-c3cccn(-c4ncc(C)s4)c3=O)cc12 | pKd: > 9.70

###

target: TYK2 kinase domain (JH1) (Homo sapiens (Human), UniProt P29597); assay: TYK2 Radioactive Kinase Assay; type: biochemical; conditions: compound at 10 μM; ATP at 10 μM; 120 min at room temp
Sequence (P29597 897-1176): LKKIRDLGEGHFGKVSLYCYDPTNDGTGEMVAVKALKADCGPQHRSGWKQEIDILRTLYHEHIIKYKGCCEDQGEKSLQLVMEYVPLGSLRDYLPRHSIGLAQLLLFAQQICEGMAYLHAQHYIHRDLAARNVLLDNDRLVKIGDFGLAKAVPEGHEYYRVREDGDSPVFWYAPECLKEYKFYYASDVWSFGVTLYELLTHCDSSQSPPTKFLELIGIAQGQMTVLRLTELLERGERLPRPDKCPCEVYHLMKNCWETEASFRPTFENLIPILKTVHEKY
Measured inhibition at 10 µM of individual entries

Recorded inhibition at 10 µM, per entry:
1. CNC(=O)c1cnc(NC(=O)C2CC2)c2[nH]c(-c3ccc(N4CCCC4=O)cc3OC)cc12 :: < 50%
2. Cn1cnc(-c2cccc(-c3cc4c(C(N)=O)cnc(NC(=O)C5CC5)c4[nH]3)c2)n1 :: > 90%

Item: CNC(=O)c1cnc(NC(=O)C2CC2)c2[nH]c(-c3cccc(-n4nccn4)c3)cc12 | inhibition at 10 µM: < 50%

Item: [2H]C([2H])([2H])NC(=O)c1cnc(NC(=O)C2CC2)c2[nH]c(-c3cccc(-c4ncn(C)n4)c3)cc12 | inhibition at 10 µM: < 50%

###

system: GM-CSF induced STAT5 phopsphorylation mediated by the JAK2/JAK2 homodimeric complex; test: GM-CSF Induced pSTAT5 in Human PBMC; assay type: cell-based; conditions: 20 min, GM-CSF 5 ng/mL for 20 minutes, read-out: PBMC_GMCSF_pSTAT5 IC50
Measured IC50 of individual entries

Recorded IC50, per entry:
1) CNC(=O)c1cnc(NC(=O)C2CC2)c2[nH]c(-c3cccc(-c4cnn(C)c4)c3F)cc12 [Compound I-19] :: > 0.3 µM
2) CNC(=O)c1cnc(NC(=O)C2CC2)c2[nH]c(-c3ccccc3)cc12 [Compound I-1] :: > 50 µM
3) CNC(=O)c1cnc(NC(=O)C2CC2)c2[nH]c(-c3cccc(-c4ncco4)c3F)cc12 [Compound I-23] :: > 50 µM
4) CNC(=O)c1cnc(NC(=O)C2CC2)c2[nH]c(-c3cccc(-c4ncn(C)n4)c3)cc12 [Compound I-2] :: > 50 µM
5) Cn1cnc(-c2cccc(-c3cc4c(C(N)=O)cnc(NC(=O)C5CC5)c4[nH]3)c2)n1 [Compound I-12] :: > 0.3 µM

// switching to the query compound
Value sought: IC50, system GM-CSF induced STAT5 phopsphorylation mediated by the JAK2/JAK2 homodimeric complex, item CNC(=O)c1cnc(NC(=O)C2CC2)c2[nH]c(-c3ccccc3N3CCCS3(=O)=O)cc12 [Compound I-4] . Result: > 12.5 µM

###

tested on: IL-12 induced STAT4 phophorylation mediated by TYK2/JAK2 (heterodimeric complex); assay: IL-12 Induced pSTAT4 in Human PBMC; type: cell-based; settings: 1.7 ng/mL IL-12 for 30 minutes, 1 hr compound preincubation
pIC50: −log10 of the molar value.
Measured pIC50 of individual entries

Recorded pIC50, per entry:
1) CNC(=O)c1cnc(NC(=O)C2CC2)c2[nH]c(-c3ccccc3N3CCCS3(=O)=O)cc12 [Compound I-4] :: > 7.00
2) CNC(=O)c1cnc(NC(=O)C2CC2)c2[nH]c(-c3cccc(-c4nnn(C)n4)c3F)cc12 [Compound I-52] :: > 7.00
3) CNC(=O)c1cnc(NC(=O)C2CC2)c2[nH]c(-c3cccc(-c4ncn(C)n4)c3)cc12 [Compound I-2] :: > 7.00

Item: CNC(=O)c1cnc(NC(=O)C2CC2)c2[nH]c(-c3ccccc3)cc12 [Compound I-1] | pIC50: 6.00 to 6.30

Item: CNC(=O)c1cnc(NC(=O)C2CC2)c2[nH]c(-c3ccc(C(=O)N4CCC4)cc3F)cc12 [Compound I-42] | pIC50: > 7.00

Item: Cn1cnc(-c2cccc(-c3cc4c(C(N)=O)cnc(NC(=O)C5CC5)c4[nH]3)c2)n1 [Compound I-12] | pIC50: > 7.00

Item: CNC(=O)c1cnc(NC(=O)C2CC2)c2[nH]c(-c3cccc(-c4cn(C)cn4)c3F)cc12 [Compound I-48] | pIC50: > 7.00

Item: CNC(=O)c1cnc(NC(=O)C2CC2)c2[nH]c(-c3ccc(C(=O)N4CCC4)cc3OC)cc12 [Compound I-24] | pIC50: > 7.00

###

Measured pKd of individual entries
biological target: human TYK2 (JH2domain-pseudokinase) (Homo sapiens (Human), UniProt P29597); experiment: TYK2 JH2 Domain Binding Assay (KINOMEscan); details: 11-point 3-fold dilution, top concentration 30,000 nM, duplicate
pKd: −log10 of the molar value.

1) CNC(=O)c1cnc(NC(=O)C2CC2)c2[nH]c(-c3cccc(-c4cn5c(n4)OCCC5)c3F)cc12 :: > 9.70
2) CNC(=O)c1cnc(NC(=O)C2CC2)c2[nH]c(-c3cc(-c4ncn(C)n4)ccn3)cc12 :: > 9.70
3) CNC(=O)c1cnc(NC(=O)C2CC2)c2[nH]c(-c3ccc(C4COCCO4)cc3OC)cc12 (stereo not drawn) [Compound I-89] :: 9.00 to 9.70
4) CNC(=O)c1cnc(NC(=O)C2CC2)c2[nH]c(-c3ccc(-c4nncn4C)cc3F)cc12 :: > 9.70
5) CNC(=O)c1cnc(NC(=O)C2CC2)c2[nH]c(-c3ccc(OC)cc3[C@@H]3COCCO3)cc12 :: < 8.00

Item: CNC(=O)c1cnc(NC(=O)C2CC2)c2[nH]c(-c3cccc(-n4cnc(C)n4)c3F)cc12 | pKd: > 9.70

Item: CNC(=O)c1cnc(NC(=O)C2CC2)c2[nH]c(-c3cccc(-c4nc(C)cn4C)n3)cc12 | pKd: > 9.70

Item: CCOc1ncccc1-c1cc2c(C(=O)NC)cnc(NC(=O)C3CC3)c2[nH]1 | pKd: 9.00 to 9.70
